# test.target: mouse TMEM16A mutant Q637A (Mus musculus, UniProt Q8BHY3, Q637A)
# Construct: expressed in transfected cells; host or cells: HEK293T
# Sequence (Q8BHY3 whole entry Q637A): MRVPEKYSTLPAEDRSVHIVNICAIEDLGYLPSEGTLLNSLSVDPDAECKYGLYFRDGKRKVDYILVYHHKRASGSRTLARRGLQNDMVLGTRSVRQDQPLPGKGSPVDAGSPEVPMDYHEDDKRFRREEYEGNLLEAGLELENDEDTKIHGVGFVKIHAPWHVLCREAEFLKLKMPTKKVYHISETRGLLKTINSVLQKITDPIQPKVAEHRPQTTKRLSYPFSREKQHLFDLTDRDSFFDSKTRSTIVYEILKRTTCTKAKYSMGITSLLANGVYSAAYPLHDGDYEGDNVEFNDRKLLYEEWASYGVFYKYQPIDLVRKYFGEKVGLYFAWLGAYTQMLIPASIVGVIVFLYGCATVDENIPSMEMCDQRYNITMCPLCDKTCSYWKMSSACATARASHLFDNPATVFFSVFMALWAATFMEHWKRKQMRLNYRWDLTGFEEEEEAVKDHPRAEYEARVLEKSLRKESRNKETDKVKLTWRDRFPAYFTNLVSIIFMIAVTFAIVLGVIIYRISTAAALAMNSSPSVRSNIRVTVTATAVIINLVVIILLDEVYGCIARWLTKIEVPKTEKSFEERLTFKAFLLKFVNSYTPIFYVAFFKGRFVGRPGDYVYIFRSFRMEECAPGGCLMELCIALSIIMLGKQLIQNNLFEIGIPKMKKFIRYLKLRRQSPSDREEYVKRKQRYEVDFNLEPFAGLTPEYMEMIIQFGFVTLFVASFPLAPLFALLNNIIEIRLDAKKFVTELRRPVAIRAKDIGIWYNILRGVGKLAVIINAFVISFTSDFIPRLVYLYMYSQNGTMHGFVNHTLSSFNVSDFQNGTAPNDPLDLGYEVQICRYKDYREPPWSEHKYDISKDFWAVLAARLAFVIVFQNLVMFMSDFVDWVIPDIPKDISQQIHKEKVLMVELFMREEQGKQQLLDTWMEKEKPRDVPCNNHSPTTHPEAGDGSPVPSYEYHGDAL
# assay.protocol: Inside-out patch recording of 1PBC block, mutant Q637A
# Type: cell-based
# protocol.conditions: -120 mV; 2 µM Ca2+
measured.quantity: pIC50
Quick note: pIC50 means taking -log10 of the concentration in moles per liter.

// recorded pIC50 for N#Cc1c(C(F)(F)F)cc(O)n2c1nc1ccccc12 : 5.08

---

# test.target: mouse TMEM16A mutant Y514A (Mus musculus, UniProt Q8BHY3, Y514A)
# Construct: expressed in transfected cells; host or cells: HEK293T
# Sequence (Q8BHY3 whole entry Y514A): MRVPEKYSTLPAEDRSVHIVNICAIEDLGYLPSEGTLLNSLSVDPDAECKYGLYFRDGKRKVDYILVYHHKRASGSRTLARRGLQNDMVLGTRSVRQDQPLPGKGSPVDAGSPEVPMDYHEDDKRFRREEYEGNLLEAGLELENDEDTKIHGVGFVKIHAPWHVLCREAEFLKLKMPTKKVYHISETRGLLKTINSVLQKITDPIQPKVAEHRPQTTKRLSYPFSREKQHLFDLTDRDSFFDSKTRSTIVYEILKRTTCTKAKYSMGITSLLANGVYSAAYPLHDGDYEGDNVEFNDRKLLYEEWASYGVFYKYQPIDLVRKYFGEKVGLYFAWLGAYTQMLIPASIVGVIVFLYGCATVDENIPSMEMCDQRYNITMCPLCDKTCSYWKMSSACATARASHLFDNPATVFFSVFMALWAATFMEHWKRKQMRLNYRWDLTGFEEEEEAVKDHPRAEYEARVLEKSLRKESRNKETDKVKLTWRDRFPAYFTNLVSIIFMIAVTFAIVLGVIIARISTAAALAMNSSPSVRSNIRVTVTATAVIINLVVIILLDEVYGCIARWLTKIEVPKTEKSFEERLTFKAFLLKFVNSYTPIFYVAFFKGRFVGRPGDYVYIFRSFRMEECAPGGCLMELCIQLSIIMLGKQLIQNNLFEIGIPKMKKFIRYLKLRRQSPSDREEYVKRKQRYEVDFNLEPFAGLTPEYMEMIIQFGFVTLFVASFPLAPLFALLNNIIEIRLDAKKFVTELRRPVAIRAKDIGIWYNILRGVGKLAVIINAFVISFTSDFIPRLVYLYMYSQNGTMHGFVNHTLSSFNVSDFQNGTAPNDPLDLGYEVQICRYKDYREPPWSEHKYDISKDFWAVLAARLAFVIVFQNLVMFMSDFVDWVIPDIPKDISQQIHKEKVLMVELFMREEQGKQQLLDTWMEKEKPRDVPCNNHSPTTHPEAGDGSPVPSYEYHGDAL
# assay.protocol: Inside-out patch recording of 1PBC block, mutant Y514A
# Type: cell-based
# protocol.conditions: 60 mV; 2 µM Ca2+
measured.quantity: IC50 (µM)
Report only the number, with the unit µM understood.

// recorded IC50 for N#Cc1c(C(F)(F)F)cc(O)n2c1nc1ccccc12 : 14.6
